OBSERVATION_TYPE: melting point

CCNn1nnnc1S ... 90 to 91 °C
O=C1NC(=O)c2ccccc2/C1=C/Nc1ccc(CN2CCCCC2)cc1 ... 185 to 186 °C

Lookup: Can you look up the measured melting point of COC(=O)c1cc(Cl)c(Oc2ccc(O)cc2)c(Cl)c1 for me?
Found: 152 to 155 °C

Lookup: Can you look up the measured melting point of CCOc1ccc(C(=O)Nc2ccccc2NC(=O)c2cccc(C(N)=NO)c2)cc1 for me?
Found: 180 to 182 °C

Lookup: Can you look up the measured melting point of C(=C\c1cc(/C=C/c2c[nH]c3ccccc23)n[nH]1)/c1cccc(OCc2ccccn2)c1 for me?
Found: 198 to 201 °C

Lookup: Can you look up the measured melting point of CCOc1ccc(C2=NN(C3CCN(S(=O)(=O)c4ccc(C)cc4)CC3)C(=O)[C@@H]3CC=CC[C@H]23)cc1OCC for me?
Found: 99 to 101 °C

Lookup: Can you look up the measured melting point of CC(Cl)(Cl)C(NC(=O)c1ccc(Cl)cc1)NC(=NC#N)Nc1cccnc1Cl (stereo not drawn) for me?
Found: 135 to 137 °C

Lookup: Can you look up the measured melting point of COc1cccc(C=O)c1OS(=O)(=O)c1ccccc1 for me?
Found: 120 to 122 °C

Lookup: Can you look up the measured melting point of CC(C)(CO)CNc1cc(C(c2cc(F)ccc2F)S(=O)(=O)c2ccc(Cl)cc2)c(Cl)cn1 (stereo not drawn) for me?
Found: 176 to 178 °C

Lookup: Can you look up the measured melting point of COC(=O)/C(=C/C=C/c1cc2cc(Cl)ccc2[nH]1)OC for me?
Found: 166 to 168 °C

###

OBSERVATION_TYPE: melting point (°C)

OCC=Cc1cccc(-c2nnn[nH]2)c1 ... 174
O=C1NC2(NC1=O)Oc1ccccc1O2 ... 202

###

OBSERVATION_TYPE: melting point

Use the examples below as a reference point.
COc1ccc2ccccc2c1C1OC(=O)NC1=O (stereo not given) ... 199 to 201 °C
c1ccc(CCc2[nH]ncc2-c2ccncc2)cc1 ... 125 to 131 °C
Nc1nc2ccccc2c2c1nc(CF)n2Cc1cc(-c2ccc(F)cc2)no1 ... 192 to 193 °C
CS(=O)(=O)Nc1cc2occ(Br)c(=O)c2cc1Oc1ccccc1 ... 215 to 216 °C

Consider the record given below.
Lookup: Can you look up the measured melting point of Cc1ccccc1Oc1cccc(CCC(=O)O)c1O for me?
Found: 106 to 107 °C

###

melting point listing for selected molecules.

COc1ccc2c(Cc3c(Cl)cncc3Cl)nnc(CO)c2c1 ... 190 to 195 °C
Cn1nc(-c2ccc(C#N)cc2)cc(C(=O)N[C@H]2CC[C@H](C(=O)O)CC2)c1=O ... 283 to 286 °C
CC(CCc1ccccc1)NCC(O)c1ccc(C(N)=O)s1 (centres undefined) ... 108 to 116 °C

Consider the record given below.
Lookup: Can you look up the measured melting point of Cc1ccc(CN2C(=O)C3(COc4cc5c(cc43)OCO5)c3ccccc32)o1 (centres undefined) for me?
Found: 117 to 119 °C

###

OBSERVATION_TYPE: melting point

Use the examples below as a reference point.
O=Cc1c(-c2ccccc2F)ccc2c1OCO2 ... 84 to 86 °C
CCOC(=O)COc1ccc(C(=O)c2cccs2)c2ccccc12 ... 79 °C
CC(=O)NC(C)c1ccc(CN2CCN(c3nccs3)CC2)cc1 (stereo not given) ... 136 to 137 °C
O=C1CCSc2cc(Br)ccc21 ... 55 to 57 °C
CC(C)=NNc1nc(Cl)c(-c2c(F)cc(F)cc2F)c(NC(C)C(F)(F)F)n1 (stereo not given) ... 157 to 159 °C

Consider the record given below.
Lookup: Can you look up the measured melting point of Cc1noc(NC(=O)N2CCN(c3nccc(-c4cccc(F)c4F)n3)CC2)c1C for me?
Found: 193 to 194 °C

The measured values listed here are drawn from a melting point compilation (Tetko et al.; mined from patent text by program, amines drawn as free bases though some values may be those of a salt).
